Test system: MOLT-4 leukemia
testSummary: NCI-60 one-dose screen, 48 h (100 = growth as untreated, 0 = no growth, -100 = all killed)
experimentalParameters: 10 µM unless noted
Compounds without any hit were thinned out: in the full panel of roughly 83,000, 20% have a hit.
measuredEndpoint: growth (%)
Number only, in %; omit the unit.

Worked examples, 2 compounds total:
# moleculeSmiles, studyTarget, unitSymbol, growth
rows = [
    ("CN(C)[C@@H]1C(=O)C(C(=O)NCc2nc3[nH]cnc(=S)c3[nH]2)=C(O)[C@@]2(O)C(=O)C3=C(O)c4c(O)cccc4[C@@](C)(O)[C@H]3C[C@@H]12", "MOLT-4 leukemia", "%", 12.9),
    ("O=C1c2cc3c(cc2-c2c1c1ccc(F)cc1c(=O)n2C[C@H](O)[C@H](O)[C@H](O)CO)OCO3", "MOLT-4 leukemia", "%", -12.3),
]

Request: Which growth value belongs to CC(C)n1c(/C=C/[C@@H](O)C[C@@H](O)CC(=O)O)c(-c2ccc(F)cc2)c2ccccc21 ?
Result: 60.8

Request: Also need COc1ccc(-c2nnc(SCC(=O)c3ccc(Cl)cc3)o2)cc1 , thanks.
Result: 109

Request: Also need O=C1/C(=C/c2ccccc2)SC(=S)N1CCc1ccc(O)cc1 , thanks.
Result: 88.6

---

Tested on: ACHN renal
testSummary: NCI-60 one-dose screen, 48 h
experimentalParameters: 10 µM unless noted
Description: Growth inhibition of the ACHN human tumor cell line is measured as a screen for anti-cancer activity. Cells are grown in 96 well plates and exposed to the test compound for 48 hours. Compounds are tested at a single concentration, which is 10^-5 M for most compounds. The reported endpoint is percent growth (GI% or GIPRCNT), where numbers from 0 - 100% represent growth inhibition, and numbers from -100% - 0 represent cell death. For example, a value of 40 represents 60% growth inhibition. […]
The panel holds about 83,000 compounds, 20% with a hit somewhere; the sample as a whole holds those more often. Calls of active or inactive are those of the source. The calls were made as follows: active = growth percent below 10; inactive = the rest.
Hi! Could you answer with just one of these? active, inactive

Please review the entries below; each comes with its answer.
# molecule, studyTarget, classification
measured = [
    ("C#CC(F)(F)[C@]1(O)CC[C@H]2[C@@H]3CCC4=CC(=O)CCC4=C3[C@@H](c3ccc(C(C)=O)cc3)C[C@@]21C", "ACHN renal", "inactive"),
    ("COc1ccc(-c2cc(-c3ccc(Nc4ccnc5cc(Cl)ccc45)cc3)nc(N3CCOCC3)n2)cc1", "ACHN renal", "inactive"),
    ("CC(=O)O[C@H]1C(=O)[C@@]2(C)[C@H]([C@H](OC(=O)c3ccccc3)[C@]3(O)C[C@H](OC(=O)[C@H](OC(=O)CCC(=O)OC4CCC(S/N=C(N)/N=C(\\N)N(C)C)CC4)[C@@H](NC(=O)c4ccccc4)c4ccccc4)C(C)=C1C3(C)C)[C@]1(OC(C)=O)CO[C@@H]1C[C@@H]2O (some centres not stated)", "ACHN renal", "inactive"),
    ("CCOC(=O)C(C)(C#N)C1C=CCCC1 (configuration not stated)", "ACHN renal", "inactive"),
    ("Cc1cc(N2CCOCC2)nc(NCc2cc(Nc3ccnc4cc(Cl)ccc34)ccc2F)n1", "ACHN renal", "active"),
    ("CCN(CC)S(=O)(=O)c1ccc(OC)c(NC(=O)c2[nH]c(C)c3c2CCCCC3=O)c1", "ACHN renal", "inactive"),
]

Request: Could you kindly confirm the outcome this assay logged for Cn1nc(N)c2cc([C@@H]3Nc4ccc5[nH]ncc5c4[C@H]4C5CCC(C5)[C@@H]34)ccc21 (some centres not stated) ?
Result: inactive

Request: Also need C#CCOc1ccc2ncnc(N3CCC(NC(=O)CCl)CC3)c2c1 , thanks.
Result: inactive

Request: Also need O=C1NC(=Nc2ccc(O)cc2)S/C1=C\c1cccc(Cl)c1 , thanks.
Result: inactive

Request: Also need O=C(/C=C/c1ccc(C(F)(F)F)cc1)Nc1ccc(C=C2c3ccccc3C(=O)c3ccccc32)cc1 , thanks.
Result: inactive

Request: Also need O=C1/C(=C/c2ccc(OCCCOc3ccc(Cl)cc3)cc2)N=C2SCCCN12 , thanks.
Result: inactive

Request: Also need CC1=C[C@H]2c3c(c(O)c(O)c4oc5c(C)cccc5c(=O)c34)[C@H](c3cc(O)c(O)c4oc5c(C)cccc5c(=O)c34)[C@H]2C(C)(C)C1 , thanks.
Result: inactive

Request: Also need CNc1ccc(-c2cc(=O)oc3ccc(Cl)cc23)cc1 , thanks.
Result: inactive

Request: Also need COc1cccc(NC(=O)c2sc3nc(C)c(C(C)=O)cc3c2N)c1 , thanks.
Result: inactive

Request: Also need C=C(C)[C@@H]1CC[C@]2(C(=O)OC)CC[C@]3(C)[C@H](CC[C@@H]4[C@@]5(C)C/C(=C/c6ccc(OC)cc6)C(=O)C(C)(C)[C@@H]5CC[C@]43C)[C@@H]12 , thanks.
Result: inactive

Request: Also need CC(O)CN1CC(O)=C(c2nc3ccccc3s2)C1=N (configuration not stated) , thanks.
Result: inactive

Request: Also need CCOc1ccc(-n2nc(C(=O)Nc3ccccc3)nc2-c2cc(OC)c(OC)c(OC)c2)cc1 , thanks.
Result: inactive

---

Test system: NCI-H226 lung
testSummary: NCI-60 one-dose screen, 48 h (100 = growth as untreated, 0 = no growth, -100 = all killed)
experimentalParameters: 10 µM unless noted
About 83,000 compounds went through this panel and 20% of them were active in at least one assay; those are over-represented in the sample as a whole.
The entries below are paired with their reported growth.
Number only, in %; omit the unit.

# compound, measurement
measured = [
    ("CC(=O)O[C@H]1[C@@H]2OC(=O)C(CSc3ccccc3)[C@@H]2C[C@H]2O[C@]2(C)CC/C=C(\\C)CCC[C@@H]1C (stereo partly drawn)", 47.9),
    ("CSc1ccc(-c2n[nH]nc2-c2cc3ccccc3s2)cc1", 86),
]

// switching to the query compound
Request: Which growth value belongs to NC(N)=N/N=C(/c1ccccc1)c1ccc(F)cc1 ?
Result: 8.06

---

Tested on: IGROV1 ovarian
testSummary: NCI-60 one-dose screen, 48 h (100 = growth as untreated, 0 = no growth, -100 = all killed)
experimentalParameters: 10 µM unless noted
This is part of a sample that, as a whole, favours compounds with a hit. Of some 83,000 tested, about 20% had one in any assay.
The entries below are paired with their reported growth.
Number only, in %; omit the unit.

Worked examples, 4 molecules total:
# moleculeSmiles, unitSymbol, growth
records = [
    ("Clc1ccc2c(NCCCCNc3nc(N4CCOCC4)nc4ccccc34)ccnc2c1", "%", 44.9),
    ("CCC(=O)c1ccc(Cl)s1", "%", 118),
    ("C[n+]1ccccc1/C=C/c1ccc2cccc(O)c2n1", "%", 105),
    ("Cc1cn2c(/C=C3/C(=O)Nc4c3ccc3ccccc43)c(C(F)(F)F)nc2s1", "%", 42.1),
]

Request: Which growth value belongs to O=C1Nc2cc(-c3ccc(O)cc3)ccc2/C1=C/c1ccc[nH]1 ?
Result: 13

---

System: SK-OV-3 ovarian
testSummary: NCI-60 one-dose screen, 48 h
experimentalParameters: 10 µM unless noted
The panel holds about 83,000 compounds, 20% with a hit somewhere; the sample as a whole holds those more often. Active and inactive are the calls of the source. Rule for the calls: active = growth percent below 10; inactive = the rest.
Hi! Could you answer with just one of these? y for active, n for inactive

Please review the entries below; each comes with its answer.
# compound, classification
measured = [
    ("CCOc1ccc(C(C)=O)cc1NC(=O)c1cccc(-c2nnn(CC)n2)c1", "n"),
    ("COc1ccc(-n2nc(C)c3c(Nc4ccc(NC(=O)Nc5cc(C(F)(F)F)ccc5F)cc4)ncnc32)cc1", "n"),
    ("CCOC(=O)C(C)(C#N)C1C=CCCC1 (stereo unspecified)", "n"),
    ("CCOC(=O)c1cc(C(=O)c2ccc(O)c(O)c2)n2ccc(-c3ccn4c(C(=O)c5ccc(O)c(O)c5)cc(C(=O)OCC)c4c3)cc12", "n"),
    ("NC(=O)c1cc(Br)ccc1NC(=O)/C=C/c1ccccc1", "n"),
]

Request: Could you kindly confirm the outcome this assay logged for CCOC(=O)n1cc(-c2nonc2-c2cn(C)c3ncccc23)c2cc(F)ccc21 ?
Result: n

Request: Also need O=C(/C=C/c1cccc(Cl)c1)c1ccc(O)c(CN2CCN(c3cc4c(cc3F)c(=O)c(C(=O)O)cn4C3CC3)CC2)c1 , thanks.
Result: n

Request: Also need CCN1CCN(c2nc(NCCNc3ccnc4cc(Cl)ccc34)c3ccccc3n2)CC1 , thanks.
Result: n

Request: Also need CC1=NN(c2nc(-c3ccc(Cl)cc3)c(C#N)c(N3CCOCC3)n2)C(=O)C1 , thanks.
Result: n

---

Test system: M14 melanoma
testSummary: NCI-60 one-dose screen, 48 h
experimentalParameters: 10 µM unless noted
Protocol: Growth inhibition of the M14 human tumor cell line is measured as a screen for anti-cancer activity. Cells are grown in 96 well plates and exposed to the test compound for 48 hours. Compounds are tested at a single concentration, which is 10^-5 M for most compounds. The reported endpoint is percent growth (GI% or GIPRCNT), where numbers from 0 - 100% represent growth inhibition, and numbers from -100% - 0 represent cell death. For example, a value of 40 represents 60% growth inhibition. […]
This is part of a sample that, as a whole, favours compounds with a hit. Of some 83,000 tested, about 20% had one in any assay. Activity calls are given as the source filed them. Rule for the calls: active = growth percent below 10; inactive = the rest.
Hi! Could you answer with just one of these? active, inactive

# molecule, classification
data = [
    ("Cn1cc(-c2nonc2-c2c[nH]c3ccccc23)c2cccnc21", "inactive"),
    ("C=CC(=O)Nc1cccc(Nc2nc(SC)nc(-c3cccc([N+](=O)[O-])c3)c2C#N)c1", "inactive"),
    ("CCN1CCC2(CC1)NC(=O)c1c(c3ccc(Cl)c(Cl)c3n1C)C2C#N (configuration not stated)", "active"),
]

Request: Could you kindly confirm the outcome this assay logged for Cc1cc(N2CCN(C)CC2)nc(NC2CCCC(Nc3ccnc4cc(Cl)ccc34)C2)n1 (configuration not stated) ?
Result: active

Request: Also need COc1cc(-c2nc3ccccc3[nH]2)ccc1OCc1nnc(-c2ccc(CC(C)C)cc2)o1 , thanks.
Result: inactive

Request: Also need CCOC(=O)n1cc(-c2nonc2-c2cn(C)c3ncccc23)c2cc(F)ccc21 , thanks.
Result: inactive

Request: Also need CC(C)CC1C(=O)N2CCC[C@H]2C2(O)O[C@](NC(=O)C3C=C4c5cccc6[nH]c(Br)c(c56)C[C@H]4N(C)C3)(C(C)C)C(=O)N12 (some centres not stated) , thanks.
Result: inactive
